Values from patent US20120108796A1

ASSAYED_TARGET: recombinant TFPI of the FXa restoring assay (human, mouse or rat; species not stated for Tables 9 and 10)
ASSAY_INFO: cell-based or functional assay

- BINDER: "2A8 HC K99L (Fab, V domains shown) VH: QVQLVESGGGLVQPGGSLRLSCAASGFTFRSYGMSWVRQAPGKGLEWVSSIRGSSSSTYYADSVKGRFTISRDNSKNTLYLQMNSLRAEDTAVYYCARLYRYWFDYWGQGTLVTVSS VL: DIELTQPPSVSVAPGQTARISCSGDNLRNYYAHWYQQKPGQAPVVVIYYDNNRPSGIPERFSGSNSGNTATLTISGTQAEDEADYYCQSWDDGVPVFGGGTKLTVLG"
  EC50, FXa restoring assay [nM]: 1
- BINDER: "2A8-143 (Fab, V domains shown) VH: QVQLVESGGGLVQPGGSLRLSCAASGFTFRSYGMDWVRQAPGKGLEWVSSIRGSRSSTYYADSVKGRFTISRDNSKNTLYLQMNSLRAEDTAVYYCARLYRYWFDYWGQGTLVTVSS VL: DIELTQPPSVSVAPGQTARISCSGDNLRNYYAHWYQQKPGQAPVVVIFYDVNRPSGIPERFSGSNSGNTATLTISGTQAEDEADYYCQSWLDGVPWFGGGTKLTVLG"
  EC50, FXa restoring assay [nM]: 0.5
- BINDER: "2A8 wild-type Fab (Fab, V domains shown) VH: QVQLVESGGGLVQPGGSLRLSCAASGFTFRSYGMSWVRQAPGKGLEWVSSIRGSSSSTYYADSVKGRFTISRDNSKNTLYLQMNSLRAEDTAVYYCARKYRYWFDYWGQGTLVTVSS VL: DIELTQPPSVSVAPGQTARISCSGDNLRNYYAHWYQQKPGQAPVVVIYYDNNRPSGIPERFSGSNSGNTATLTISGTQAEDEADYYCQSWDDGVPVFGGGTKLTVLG"
  EC50, FXa restoring assay [nM]: 7.91
